Measured values drawn from patent US11839212B2 for this set.

Exercise: state measured MIC for each of the compounds provided.
System: Alternaria solani
Assay: Synergistic Growth Inhibition Assay (MIC and FIC index, 96-well, resazurin)
Type: cell-based
Settings: Alternaria solani, […], Table 60; Compound B alone; 7 days incubation; read-out: MIC (B)
One number for each entry, in µg/mL.

See these solved cases before continuing.
>>> print(df.to_string())
                                   compound  observed_measurement
0                              CCCCCCC(=O)O                   156
1  CCCC/C=C/CC(=O)O [Trans-3-octenoic acid]                   156
2  CCCCCCCC/C=C/C(=O)O [Trans-2-undecenoic acid]                   156
3                              C=CCCCC(=O)O                   312
4  CC/C=C/CC(=O)O [Trans-3-hexenoic acid, trans-3-hexenoic acid]                   312
5                           CCCCCC=CCC(=O)O                  78.1
6  CCCCCCC/C=C/C(=O)O [Trans-2-decenoic acid, trans-2-decenoic acid]                  78.1
7  CCCCCC/C=C/C(=O)O [Trans-2-nonenoic acid]                  78.1
8                          C/C=C/C=C/C(=O)O                   125

Now take the following compound into account.
The reported MIC of the compound `CCCCCCC=CCC(=O)O` was 78.1
